Collected MFC values appear next to each entry.
System: Aspergillus fumigatus
Assay overview: Antifungal activity against Aspergillus fumigatus NRRL5109 assessed as reduction in fungal growth incubated for 48 hrs by microplate reader analysis
Assay type: functional
Numbered stars: 1 amine (or outer) side, 2 acyl side, 3 side chain; on linkers, the order of the positions; unused ones are H or OH. Square brackets hold non-standard residues; d marks the D form. Peptide text beside a SMILES is read from it. X1 = CC[C@@H](C)[C@@H](O[*:1])C(=O)[*:2]; NMeVal(β-OH) = CN[C@H](C(=O)O)C(C)(C)O; NMeF = CN[C@@H](Cc1ccccc1)C(=O)O; aIle = CC[C@@H](C)[C@H](N)C(=O)O; NMeV = CN[C@H](C(=O)O)C(C)C

1) CC[C@@H](C)[C@@H]1NC(=O)[C@@H]2CCCN2C(=O)[C@H](Cc2ccccc2)N(C)C(=O)[C@H](Cc2ccccc2)NC(=O)[C@H](C(C)C)N(C)C(=O)[C@@H]([C@H](C)CC)OC(=O)[C@H](C(C)(C)O)N(C)C(=O)[C@H](CC(C)C)NC(=O)[C@H](C(C)C)N(C)C1=O [AUREOBASIDIN A] (cyclo(F[NMeF]P[aIle][NMeV]L[NMeVal(β-OH)][X1][NMeV])) ... > 10 µM

# context switch: different compound, same MFC
Q: MFC for CC[C@H](C)C[C@H](C)CCCCCCCCC(=O)N[C@H]1C[C@@H](O)[C@@H](NCCN)NC(=O)[C@@H]2[C@@H](O)CCN2C(=O)[C@H]([C@H](O)CCN)NC(=O)[C@H]([C@H](O)[C@@H](O)c2ccc(O)cc2)NC(=O)[C@@H]2C[C@@H](O)CN2C(=O)[C@H]([C@@H](C)O)NC1=O ?
Result: > 10 µM

* * *

Tested on: Candida albicans
Assay overview: Antifungal activity against Candida albicans ATCC 10231 assessed as reduction in fungal growth incubated for 48 hrs by microplate reader analysis
Format: functional
Numbered stars: 1 amine (or outer) side, 2 acyl side, 3 side chain; on linkers, the order of the positions; unused ones are H or OH. Square brackets hold non-standard residues; d marks the D form. Peptide text beside a SMILES is read from it. X1 = CC[C@@H](C)[C@@H](O[*:1])C(=O)[*:2]; NMeVal(β-OH) = CN[C@H](C(=O)O)C(C)(C)O; NMeF = CN[C@@H](Cc1ccccc1)C(=O)O; aIle = CC[C@@H](C)[C@H](N)C(=O)O; NMeV = CN[C@H](C(=O)O)C(C)C
Observed property: MIC80 (µM)
Express your answer in µM, writing the number without its unit.

1) CC[C@H](C)C[C@H](C)C[C@H](C)C[C@@H]1NC(=O)[C@H](C(C)C)N(C)C(=O)[C@@H]([C@H](C)CC)OC(=O)[C@H](C(C)(C)O)N(C)C(=O)[C@H](CC(C)C)NC(=O)[C@H](C(C)C)N(C)C(=O)[C@H]([C@H](C)CC)NC(=O)[C@@H]2CCCN2C(=O)CN(C)C1=O ... 0.6

Q: // MIC80 lookup, key: CC[C@@H](C)[C@@H]1NC(=O)[C@@H]2CCCN2C(=O)[C@H](Cc2ccccc2)N(C)C(=O)[C@H](Cc2ccccc2)NC(=O)[C@H](C(C)C)N(C)C(=O)[C@@H]([C@H](C)CC)OC(=O)[C@H](C(C)(C)O)N(C)C(=O)[C@H](CC(C)C)NC(=O)[C@H](C(C)C)N(C)C1=O [AUREOBASIDIN A] (cyclo(F[NMeF]P[aIle][NMeV]L[NMeVal(β-OH)][X1][NMeV]))
Result: 0.6

Q: # MIC80 lookup, item CCC(C)n1ncn(-c2ccc(N3CCN(c4ccc(OCC5COC(Cn6cncn6)(c6ccc(Cl)cc6Cl)O5)cc4)CC3)cc2)c1=O (stereo not drawn)
Result: 0.06

* * *

Tested on: Aspergillus terreus
Assay overview: Antifungal activity against Aspergillus terreus 191A6 assessed as reduction in fungal viability incubated for 48 hrs by microplate reader analysis
Assay type: functional
Entries and their MFC<=99.9 values follow.
The reply should contain only the number, in µM.

1) CCC(C)n1ncn(-c2ccc(N3CCN(c4ccc(OCC5COC(Cn6cncn6)(c6ccc(Cl)cc6Cl)O5)cc4)CC3)cc2)c1=O (stereo not given) ... 2.5

Turning now to a further record.
Q: Query MFC<=99.9 on Aspergillus terreus for C[C@@H]1[C@H](O)[C@@H](C)/C=C/C=C/C=C/C=C/C=C/C=C/C=C/[C@H](O[C@@H]2O[C@H](C)[C@@H](O)[C@H](N)[C@@H]2O)C[C@@H]2O[C@](O)(C[C@@H](O)C[C@@H](O)[C@H](O)CC[C@@H](O)C[C@@H](O)CC(=O)O[C@H]1C)C[C@H](O)[C@H]2C(=O)O
Result: 10

* * *

Tested on: Aspergillus fumigatus
Assay overview: Antifungal activity against Aspergillus fumigatus NRRL5109 assessed as reduction in fungal growth incubated for 48 hrs by microplate reader analysis
Format: functional
Observed property: MFC (µM)
# value in µM; strip the unit string

Study these solved cases before continuing.
1) C[C@@H]1[C@H](O)[C@@H](C)/C=C/C=C/C=C/C=C/C=C/C=C/C=C/[C@H](O[C@@H]2O[C@H](C)[C@@H](O)[C@H](N)[C@@H]2O)C[C@@H]2O[C@](O)(C[C@@H](O)C[C@@H](O)[C@H](O)CC[C@@H](O)C[C@@H](O)CC(=O)O[C@H]1C)C[C@H](O)[C@H]2C(=O)O ... 5
2) CC[C@H](C)C[C@H](C)C[C@H](C)C[C@@H]1NC(=O)[C@H](C(C)C)N(C)C(=O)[C@@H]([C@H](C)CC)OC(=O)[C@H](C(C)(C)O)N(C)C(=O)[C@H](CC(C)C)NC(=O)[C@H](C(C)C)N(C)C(=O)[C@H]([C@H](C)CC)NC(=O)[C@@H]2CCCN2C(=O)CN(C)C1=O ... 5

Then this compound:
Q: Sample CCC(C)n1ncn(-c2ccc(N3CCN(c4ccc(OCC5COC(Cn6cncn6)(c6ccc(Cl)cc6Cl)O5)cc4)CC3)cc2)c1=O (stereo not drawn) — what was its MFC?
Result: 10

* * *

Tested on: Rhizopus arrhizus
Assay overview: Antifungal activity against Rhizopus oryzae FGSC 9543 assessed as reduction in fungal viability incubated for 48 hrs by microplate reader analysis
Type: functional
Observed property: MFC<=99.9 (µM)
Unit µM implied. Number only.

1) C[C@@H]1[C@H](O)[C@@H](C)/C=C/C=C/C=C/C=C/C=C/C=C/C=C/[C@H](O[C@@H]2O[C@H](C)[C@@H](O)[C@H](N)[C@@H]2O)C[C@@H]2O[C@](O)(C[C@@H](O)C[C@@H](O)[C@H](O)CC[C@@H](O)C[C@@H](O)CC(=O)O[C@H]1C)C[C@H](O)[C@H]2C(=O)O ... 0.3

Q: Observed MFC<=99.9 on Rhizopus arrhizus for CCC(C)n1ncn(-c2ccc(N3CCN(c4ccc(OCC5COC(Cn6cncn6)(c6ccc(Cl)cc6Cl)O5)cc4)CC3)cc2)c1=O (stereo not drawn) , please.
Result: 0.6

* * *

System: Aspergillus terreus
Assay overview: Antifungal activity against Aspergillus terreus 191A6 assessed as reduction in fungal growth incubated for 48 hrs by microplate reader analysis
Type: functional
Observed property: MFC

1) CC[C@H](C)C[C@H](C)C[C@H](C)C[C@@H]1NC(=O)[C@H](C(C)C)N(C)C(=O)[C@@H]([C@H](C)CC)OC(=O)[C@H](C(C)(C)O)N(C)C(=O)[C@H](CC(C)C)NC(=O)[C@H](C(C)C)N(C)C(=O)[C@H]([C@H](C)CC)NC(=O)[C@@H]2CCCN2C(=O)CN(C)C1=O ... > 10 µM

Consider the record given below.
Q: For the compound CC[C@H](C)C[C@H](C)CCCCCCCCC(=O)N[C@H]1C[C@@H](O)[C@@H](NCCN)NC(=O)[C@@H]2[C@@H](O)CCN2C(=O)[C@H]([C@H](O)CCN)NC(=O)[C@H]([C@H](O)[C@@H](O)c2ccc(O)cc2)NC(=O)[C@@H]2C[C@@H](O)CN2C(=O)[C@H]([C@@H](C)O)NC1=O , what MFC is on record?
Result: > 10 µM

* * *

Test system: Aspergillus niger
Assay overview: Antifungal activity against Aspergillus niger FGSC A732 assessed as reduction in fungal growth incubated for 48 hrs by microplate reader analysis
Type: functional
Observed property: MIC80 (µM)
// return numeric value only (unit: µM, not printed)

1. CC[C@H](C)C[C@H](C)C[C@H](C)C[C@@H]1NC(=O)[C@H](C(C)C)N(C)C(=O)[C@@H]([C@H](C)CC)OC(=O)[C@H](C(C)(C)O)N(C)C(=O)[C@H](CC(C)C)NC(=O)[C@H](C(C)C)N(C)C(=O)[C@H]([C@H](C)CC)NC(=O)[C@@H]2CCCN2C(=O)CN(C)C1=O ... 1.3

Attention now turns to another entry.
Q: What does the record list as MIC80 for CC[C@H](C)C[C@H](C)CCCCCCCCC(=O)N[C@H]1C[C@@H](O)[C@@H](NCCN)NC(=O)[C@@H]2[C@@H](O)CCN2C(=O)[C@H]([C@H](O)CCN)NC(=O)[C@H]([C@H](O)[C@@H](O)c2ccc(O)cc2)NC(=O)[C@@H]2C[C@@H](O)CN2C(=O)[C@H]([C@@H](C)O)NC1=O ?
Result: 0.1

From: ChEMBL document CHEMBL5390204
